Entry source: patent US20240391930A1

biological target: human EBP (Homo sapiens, UniProt Q15125)
Sequence (Q15125 whole entry): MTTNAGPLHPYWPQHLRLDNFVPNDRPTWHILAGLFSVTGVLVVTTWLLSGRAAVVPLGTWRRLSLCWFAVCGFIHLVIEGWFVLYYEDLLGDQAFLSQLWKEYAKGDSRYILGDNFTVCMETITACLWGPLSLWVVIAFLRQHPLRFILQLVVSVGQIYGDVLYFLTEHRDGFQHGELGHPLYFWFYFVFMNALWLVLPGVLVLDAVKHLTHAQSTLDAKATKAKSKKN
A collection of compounds and their measured Ki
Write the answer as a number in nM, unit excluded.

Observe how each entry below is paired with its result.
INSERT INTO results (compound, study_system, reported) VALUES
  ('CC(C)n1nc(C(F)(F)F)cc1[C@H]1[C@@H]2C[C@@H](N3CCC4(C3)CS(=O)(=O)C4)C[C@@H]21 (single isomer, unassigned) [Compound 22]', 'human EBP (Homo sapiens, UniProt Q15125)', 30),
  ('CC(C)n1nc(-c2cccc(C(F)(F)F)n2)cc1[C@H]1[C@@H]2C[C@@H](N3CCC4(C3)CS(=O)(=O)C4)C[C@@H]21 (single isomer, unassigned) [Compound 11]', 'human EBP (Homo sapiens, UniProt Q15125)', 36);

# ---- query compound ----
Given CC(C)n1nc(-c2cc(C(F)(F)F)ccn2)cc1[C@H]1[C@@H]2C[C@@H](N3CCC4(C3)CS(=O)(=O)C4)C[C@@H]21 (single isomer, unassigned) [Compound 20] , state its recorded Ki.
62
